Cited source for all entries: the RNAGym collection of RNA variant scans (doi:10.1073/pnas.2313332121)

B1: TPR 5TU (parent)
chain: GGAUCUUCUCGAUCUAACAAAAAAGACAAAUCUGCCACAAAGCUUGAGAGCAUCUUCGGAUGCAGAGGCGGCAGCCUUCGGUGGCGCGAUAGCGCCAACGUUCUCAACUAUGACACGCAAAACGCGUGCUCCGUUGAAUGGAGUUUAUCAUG

- Variants of: B1
- assay_procedure: polymerase ribozyme fitness, log enrichment relative to wild type (log ratio); higher = more active; in vitro selection for triplet polymerase activity
Fewer inactive variants are shown than the library holds.
observed_property: polymerase ribozyme fitness (log ratio)
Lab note: jot the number down without any unit.

Using known records, supply polymerase ribozyme fitness (log ratio) for G81U A97U C105U
0.976

Return reported polymerase ribozyme fitness (log ratio). Input variant: C35U C72U
-0.649

Determine from records and report polymerase ribozyme fitness (log ratio) for G58A U61G
-1.49

Note down polymerase ribozyme fitness (log ratio) recorded for A89U C99G A142U
-2.38

Hello, please tell me recorded polymerase ribozyme fitness (log ratio) for this one: U53A C118U U134C G141A U146C
-0.702

Recall and state the measured polymerase ribozyme fitness (log ratio) for A22U G143C .
-1.09

Answer with reported polymerase ribozyme fitness (log ratio) of A12U C85U G136U
-3.16

Given "A73U" , respond with its polymerase ribozyme fitness (log ratio).
-0.424

Supply reported polymerase ribozyme fitness (log ratio) belonging to this variant: C96A A122C U139G A150C
-3.67

Please supply the value of reported polymerase ribozyme fitness (log ratio) for the item C10A A91U U101G
-4.05

// fetch polymerase ribozyme fitness (log ratio) given entry G83A C108U C125G
-3.77

Using known records, supply polymerase ribozyme fitness (log ratio) for U6G A26U C93U
-2.39

Name the recorded polymerase ribozyme fitness (log ratio) of the item A19G G50U U55A C96U U145G in your answer.
-2.18
